# assay_text: Tmax in Sprague-Dawley rat at 10 mg/kg, po measured upto 24 hrs by LC-MS/MS analysis
# Type: ADME, organism-based
# study_conditions: in vivo
# reported Tmax; entries follow

{"compound": "Cc1cn(C2=CCC3C4CC=C5C[C@@H](NC(=O)c6ccc(F)cc6F)CC[C@]5(C)C4CC[C@]23C)cn1 (some centres undefined)", "Tmax": "6 h"}
{"compound": "Cc1cn(C2=CCC3C4CC=C5C[C@@H](NC(=O)c6ccncc6)CC[C@]5(C)C4CC[C@]23C)cn1 (some centres undefined)", "Tmax": "2.17 h"}
{"compound": "Cc1cn(C2=CCC3C4CC=C5C[C@@H](NC(=O)c6ccc(F)cc6)CC[C@]5(C)C4CC[C@]23C)cn1 (some centres undefined)", "Tmax": "4 h"}
{"compound": "Cc1cn(C2=CCC3C4CC=C5C[C@@H](NC(=O)c6ccc(F)cc6)CC[C@]5(C)C4CC[C@]23C)cn1.Cl (some centres undefined)", "Tmax": "0.83 h"}

###

# experimental_system: Androgen receptor (Homo sapiens)
# Sequence (P10275 whole entry): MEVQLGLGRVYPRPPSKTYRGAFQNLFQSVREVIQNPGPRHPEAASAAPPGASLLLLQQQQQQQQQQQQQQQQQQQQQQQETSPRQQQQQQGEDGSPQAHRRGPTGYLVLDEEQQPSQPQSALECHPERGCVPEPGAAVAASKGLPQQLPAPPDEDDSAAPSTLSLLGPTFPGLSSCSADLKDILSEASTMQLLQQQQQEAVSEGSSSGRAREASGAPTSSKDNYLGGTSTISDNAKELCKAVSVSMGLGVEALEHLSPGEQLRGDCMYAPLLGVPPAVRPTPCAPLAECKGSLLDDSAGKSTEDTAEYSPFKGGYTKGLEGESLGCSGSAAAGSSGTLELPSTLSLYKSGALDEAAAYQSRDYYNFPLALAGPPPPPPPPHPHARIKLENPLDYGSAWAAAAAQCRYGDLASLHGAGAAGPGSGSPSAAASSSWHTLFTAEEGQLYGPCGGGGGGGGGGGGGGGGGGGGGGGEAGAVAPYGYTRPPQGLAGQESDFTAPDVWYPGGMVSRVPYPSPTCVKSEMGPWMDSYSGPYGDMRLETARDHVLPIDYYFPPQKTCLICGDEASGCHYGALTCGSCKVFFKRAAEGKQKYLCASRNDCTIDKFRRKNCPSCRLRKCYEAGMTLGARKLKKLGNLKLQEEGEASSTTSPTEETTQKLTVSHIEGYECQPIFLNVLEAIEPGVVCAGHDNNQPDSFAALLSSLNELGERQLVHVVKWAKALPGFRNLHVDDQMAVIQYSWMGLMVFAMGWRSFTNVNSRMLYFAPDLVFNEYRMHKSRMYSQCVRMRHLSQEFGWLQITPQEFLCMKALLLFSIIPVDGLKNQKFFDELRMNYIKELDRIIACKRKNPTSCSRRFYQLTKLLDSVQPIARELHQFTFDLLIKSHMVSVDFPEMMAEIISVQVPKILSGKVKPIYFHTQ
# assay_text: Induction of androgen receptor degradation in human LNCaP cells incubated for 24 hrs by ELISA
pEC50: −log10 of the molar value.
Listed below: pEC50 values for each entry.
quantity_kind: pEC50

{"compound": "Cc1cn(C2=CCC3C4CC=C5C[C@@H](NC(=O)c6ccncc6F)CC[C@]5(C)C4CC[C@]23C)cn1 (stereo partly specified)", "quantity_kind": "pEC50", "test_value": 5.24}
{"compound": "C[C@]12CC[C@H](NC(=O)c3ccnnc3)CC1=CCC1C2CC[C@]2(C)C(n3cnc([N+](=O)[O-])c3)=CCC12 (stereo partly specified)", "quantity_kind": "pEC50", "test_value": 5.48}
{"compound": "Cc1cn(C2=CCC3C4CC=C5C[C@@H](NC(=O)c6ccc([N+](=O)[O-])cc6)CC[C@]5(C)C4CC[C@]23C)cn1 (stereo partly specified)", "quantity_kind": "pEC50", "test_value": 5.59}
{"compound": "Cc1cn(C2=CCC3C4CC=C5C[C@@H](NC(=O)c6ccc(F)cc6)CC[C@]5(C)C4CC[C@]23C)cn1 (stereo partly specified)", "quantity_kind": "pEC50", "test_value": 5.89}
{"compound": "COc1cn(C2=CCC3C4CC=C5C[C@@H](NC(=O)c6ccnnc6)CC[C@]5(C)C4CC[C@]23C)cn1 (stereo partly specified)", "quantity_kind": "pEC50", "test_value": 5.41}
{"compound": "Cc1cn(C2=CCC3C4CC=C5C[C@@H](NC(=O)c6ccc(S(C)(=O)=O)cc6)CC[C@]5(C)C4CC[C@]23C)cn1 (stereo partly specified)", "quantity_kind": "pEC50", "test_value": 5.86}
